STUDY_TARGET: T1, RABV nucleoprotein lacking its N-terminal arm (N[change], residues 24-450) (rabies virus (strain CVS-11), UniProt Q8JXF6 24-450)
T1 sequence: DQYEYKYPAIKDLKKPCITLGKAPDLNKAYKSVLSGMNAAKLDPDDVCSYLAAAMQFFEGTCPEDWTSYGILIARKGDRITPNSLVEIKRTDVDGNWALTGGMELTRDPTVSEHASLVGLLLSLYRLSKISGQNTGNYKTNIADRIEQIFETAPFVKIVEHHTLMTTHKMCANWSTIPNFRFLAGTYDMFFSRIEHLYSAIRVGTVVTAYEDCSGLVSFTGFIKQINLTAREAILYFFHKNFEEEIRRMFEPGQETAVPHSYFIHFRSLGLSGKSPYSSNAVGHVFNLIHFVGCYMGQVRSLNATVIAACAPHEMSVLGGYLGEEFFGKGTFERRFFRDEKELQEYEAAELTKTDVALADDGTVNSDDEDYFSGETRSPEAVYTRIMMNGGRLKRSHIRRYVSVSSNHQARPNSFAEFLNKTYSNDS
ASSAY_SUMMARY: fluorescence polarisation
PROTOCOL_CONDITIONS: both partners purified
METRIC_NAME: pKd
One number for each entry, as −log10 of the molar value.

Which pKd value belongs to RABV phosphoprotein residues 1-68 with C-terminal His6 (P68−His6) (peptide) MSKIFVNPSAIRAGLADLEMAEETVDLINRNIEDNQAHLQGEPIEVDNLPEDMKRLHLDDEKSSNLGE ?
8.09

Data credit: paper PMC9786881
